- Test Protocol: BSK_KF3CT_SRB: Viability Assessment in the BioMAP Diversity Plus: KF3CT Assay (AID 2283069);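 further: total protein by sulforhodamine B staining as a cytotoxicity measure; read 24 h after compound addition; fitted for both signal gain and loss against DMSO baseline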
- Measurement Context: primary human keratinocytes with fibroblasts
Activity calls are given as the source filed them. How the source made its calls: active means hit-call score of the fitted dose curve at least 0.9, where 1 is the maximum; inactive means score below 0.9.
Measurement Label: AC50

Molecule | Measurement Label | Reading
CCc1cc(SCc2sc(-c3ccc(C(F)(F)F)cc3)nc2CN2CCN(c3ccc(OC)cc3)CC2)ccc1OCC(=O)O | AC50 | 3.42 µM (active)
CC(=O)OC[C@H]1O[C@@](COC(C)=O)(O[C@H]2O[C@H](COC(C)=O)[C@@H](OC(C)=O)[C@H](OC(C)=O)[C@H]2OC(C)=O)[C@@H](OC(C)=O)[C@@H]1OC(C)=O | AC50 | inactive
CC[C@H](C)C(=O)O[C@H]1C[C@@H](C)C=C2C=C[C@H](C)[C@H](CC[C@@H]3C[C@@H](O)CC(=O)O3)[C@H]21 | AC50 | 31.7 µM (active)
COC(=O)c1c(Cl)c(Cl)c(C(=O)OC)c(Cl)c1Cl | AC50 | inactive
CCCCCCCCO | AC50 | inactive
Nc1nc2ncc(CNc3ccc(C(=O)N[C@@H](CCC(=O)O)C(=O)O)cc3)nc2c(=O)[nH]1 | AC50 | inactive
CCCCC(CC)COC(=O)CCCCCCCCC(=O)OCC(CC)CCCC (stereo not drawn) | AC50 | inactive
CCOCCO | AC50 | inactive
